The reported measurements were obtained from PubChem BioAssay (NCATS).

# protocol description: Cellular viability qHTS for adrenocortical cancer (ACC) cell line NCI-H295R (AID 1963990); note: nearly all actives have a fitted effect of over 60% in size; note: potency is the fitted concentration of half-maximal effect
# recorded conditions: CellTiter-Glo ATP luminescence, 48 h; series mostly up to 46.1 µM
Records with an inconclusive call do not appear. Active and inactive are the calls of the source. Calls come from the whole dose curve; as a rule, active = well fitted cell-killing curve with a large enough effect; inconclusive = small, poorly fitted or top-dose-only effect; inactive = flat fitted curve, though single readings scatter.
measurement type: Potency

>>> result("COc1ccc(C(=O)c2ccccc2O)c(O)c1")
"inactive"
>>> result("CO[C@@H](C)Cn1c(=O)n(C)c2cnc3ccc(-c4cncc(C(C)(C)O)c4)cc3c21")
"0.891 µM (active)"
>>> result("Cc1cc(F)c(C(=O)Nc2cccc(-c3nncn3C(C)C)n2)cc1-n1cnc(C2CC2)c1")
"14.1 µM (active)"
>>> result("CC(=O)OCC(=O)[C@@]12OC(C)(C)O[C@@H]1C[C@H]1[C@@H]3C[C@H](F)C4=CC(=O)C=C[C@]4(C)[C@@]3(F)[C@@H](O)C[C@@]12C")
"inactive"
>>> result("CC(C)C[C@H](NC(=O)CNC(=O)c1cc(Cl)ccc1Cl)B(O)O")
"0.398 µM (active)"

What Potency value was documented for this molecule, Cc1scc2c1N(C(=O)CN1CCN(C)CC1)c1ccccc1NC2=O ?
inactive

What Potency value was documented for this molecule, COc1cc2c(cc1OC)CC(=O)N(CCCN(C)C[C@H]1Cc3cc(OC)c(OC)cc31)CC2 ?
inactive

What Potency value was documented for this molecule, COc1c(C)cc(NC(=O)c2nn(Cc3ccc(F)cc3)c3c2CN(C(=O)c2ccc[nH]2)C[C@]3(C)C(N)=O)cc1C ?
inactive

What Potency value was documented for this molecule, O=C(O)CCC=CCC[C@@H]1[C@H](N2CCCCC2)[C@@H](O)C[C@@H]1OCc1ccc(-c2ccccc2)cc1 ?
inactive

What Potency value was documented for this molecule, O=C(O)/C=C\C(=O)O ?
inactive

What Potency value was documented for this molecule, CNC(=O)c1ccccc1Nc1nc(Nc2ccc(N3CCOCC3)cc2OC)ncc1Cl ?
0.631 µM (active)

What Potency value was documented for this molecule, CC1(C)O[C@H]2CC(=O)OC[C@]23[C@H]2CC[C@@]4(C)[C@H](c5ccoc5)OC(=O)[C@H]5O[C@]54[C@]2(C)C(=O)C[C@@H]13 ?
inactive

What Potency value was documented for this molecule, O=C(O)C1=CO[C@@H](O[C@@H]2O[C@H](CO)[C@@H](O)[C@H](O)[C@H]2O)[C@@H]2C(CO)=CC[C@H]12 ?
inactive

What Potency value was documented for this molecule, COC1=C2C[C@H](C)C[C@H](OC)[C@H](O)[C@@H](C)/C=C(/C)[C@H](OC(N)=O)[C@@H](OC)/C=C\C=C(\C)C(=O)NC(=CC1=O)C2=O ?
inactive

What Potency value was documented for this molecule, CC(C)(C)c1cc(C(C)(C)C)c(NC(=O)c2c[nH]c3ccccc3c2=O)cc1O ?
7.08 µM (active)

* * *

# protocol description: Quantitative highthroughput screen to assess conditional lethalithy of NOMO1 cells grown in RPMI1640 with untreated serum (RPMI+s) (AID 1963876); note: nearly all actives have a fitted effect of over 35% in size
# recorded conditions: NOMO1 AML cells in RPMI+serum, CellTiter-Glo viability, 48 h; series mostly up to 45.8 µM
Records with an inconclusive call do not appear. Calls of active or inactive are those of the source. Calls come from the whole dose curve; as a rule, active = well fitted cell-killing curve with a large enough effect; inconclusive = small, poorly fitted or top-dose-only effect; inactive = flat fitted curve, though single readings scatter.
Output constraint: value belongs to active, inactive

>>> label("O=C1NC(=O)[C@@H](c2cn3c4c(cccc24)CCC3)[C@H]1c1c[nH]c2ccccc12")
"active"
>>> label("Cc1nc(C(=O)NCC(=O)O)c(O)c2ccc(Oc3ccccc3)cc12")
"inactive"
>>> label("O=C(C=Cc1cccnc1)NCCCCC1CCN(C(=O)c2ccccc2)CC1")
"active"
>>> label("CNc1nc(Nc2ccc(C(=O)N3CCOCC3)cc2OC)ncc1Cl")
"inactive"
>>> label("COc1c(N2CCNC(C)C2)c(F)cc2c(=O)c(C(=O)O)cn(C3CC3)c12 (configuration not stated)")
"inactive"

Hey, what did the test say about C=C1C(=CC=C2CCC[C@]3(C)[C@@H]([C@H](C)CCCC(C)(C)O)CC[C@@H]23)C[C@@H](O)C[C@@H]1O ?
inactive

Hey, what did the test say about Cc1ccc(C(=O)N(CCCN)[C@@H](c2nc3cc(Cl)ccc3c(=O)n2Cc2ccccc2)C(C)C)cc1 ?
active

Hey, what did the test say about CC(=O)O[C@]1(C(C)=O)CC[C@@H]2[C@@H]3C[C@H](C)C4=CC(=O)CC[C@]4(C)[C@H]3CC[C@@]21C ?
inactive

Hey, what did the test say about O=C(O)CSCC(=O)NC1CCSC1=O (configuration not stated) ?
inactive

Hey, what did the test say about CC(C)(C#N)c1cc(Cn2cncn2)cc(C(C)(C)C#N)c1 ?
inactive

Hey, what did the test say about CC(C)(C)NC(=O)[C@H]1CC[C@H]2[C@@H]3CC[C@H]4NC(=O)C=C[C@]4(C)[C@H]3CC[C@]12C ?
active

Hey, what did the test say about OC1CCC(Nc2ncc3nc(Nc4c(F)cc(F)cc4F)n([C@@H]4CCOC4)c3n2)CC1 (some centres not stated) ?
inactive

Hey, what did the test say about CN(CCOc1ccc(CC2SC(=O)NC2=O)cc1)c1ccccn1 (configuration not stated) ?
inactive

Hey, what did the test say about COC1CCC(C(=O)c2ccc3nc4c(cc3c2)CCCO4)CC1 (configuration not stated) ?
inactive

Hey, what did the test say about CC(=O)N(O)CCCCCNC(=O)CCC(=O)N(O)CCCCCNC(=O)CCC(=O)N(O)CCCCCN ?
active

Hey, what did the test say about COC(=O)[C@H](CCCN=C(N)N)NS(=O)(=O)c1ccc(C)cc1 ?
inactive
